# test target: HDAC4 (Homo sapiens, UniProt P56524)
# Sequence (P56524 whole entry, species assumed): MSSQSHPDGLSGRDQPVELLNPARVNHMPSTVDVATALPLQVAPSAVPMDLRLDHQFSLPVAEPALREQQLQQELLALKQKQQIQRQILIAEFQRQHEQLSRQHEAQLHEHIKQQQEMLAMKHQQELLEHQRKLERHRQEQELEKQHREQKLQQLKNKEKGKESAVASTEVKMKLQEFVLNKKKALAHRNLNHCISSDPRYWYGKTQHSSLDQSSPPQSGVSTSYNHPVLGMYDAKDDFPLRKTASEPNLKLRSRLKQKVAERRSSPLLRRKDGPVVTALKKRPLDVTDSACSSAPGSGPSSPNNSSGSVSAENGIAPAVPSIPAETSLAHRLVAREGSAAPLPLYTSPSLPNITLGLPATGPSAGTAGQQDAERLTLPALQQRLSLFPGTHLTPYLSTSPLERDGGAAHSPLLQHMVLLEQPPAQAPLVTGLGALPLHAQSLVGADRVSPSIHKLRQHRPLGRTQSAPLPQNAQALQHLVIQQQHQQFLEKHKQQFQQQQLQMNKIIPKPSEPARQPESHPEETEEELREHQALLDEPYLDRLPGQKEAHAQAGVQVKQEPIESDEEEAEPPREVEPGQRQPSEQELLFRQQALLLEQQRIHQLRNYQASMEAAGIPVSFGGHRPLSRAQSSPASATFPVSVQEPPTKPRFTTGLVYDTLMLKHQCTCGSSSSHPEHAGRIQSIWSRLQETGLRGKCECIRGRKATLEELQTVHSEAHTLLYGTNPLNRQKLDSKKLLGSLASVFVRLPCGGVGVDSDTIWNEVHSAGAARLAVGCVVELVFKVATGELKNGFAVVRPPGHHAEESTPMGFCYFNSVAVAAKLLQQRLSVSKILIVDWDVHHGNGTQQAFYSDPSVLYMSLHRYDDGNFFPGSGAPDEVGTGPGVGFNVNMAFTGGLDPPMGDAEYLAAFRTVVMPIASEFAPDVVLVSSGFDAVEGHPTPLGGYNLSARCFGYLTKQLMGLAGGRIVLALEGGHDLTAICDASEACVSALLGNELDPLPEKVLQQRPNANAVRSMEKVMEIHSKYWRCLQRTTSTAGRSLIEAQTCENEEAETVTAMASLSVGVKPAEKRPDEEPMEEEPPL
metric: IC50

# compound Cc1ccc(C(=O)NCCCCCC(=O)Nc2ccc(F)cc2N)cc1 [compound 136] ; its IC50 = > 180 µM

###

# Test system: IMR90 cells
# Format: cell-based, human
# measurement parameters: read-out: Proliferation inhibition IMR90, IC50; 72h
metric: IC50

So the reported IC50 for Cc1ccc(C(=O)NCCCCCC(=O)Nc2ccc(F)cc2N)cc1 , on IMR90 cells, turned out to be > 50 µM

###

# test target: CYP3A4 (Homo sapiens, UniProt P08684)
# Sequence (P08684 whole entry): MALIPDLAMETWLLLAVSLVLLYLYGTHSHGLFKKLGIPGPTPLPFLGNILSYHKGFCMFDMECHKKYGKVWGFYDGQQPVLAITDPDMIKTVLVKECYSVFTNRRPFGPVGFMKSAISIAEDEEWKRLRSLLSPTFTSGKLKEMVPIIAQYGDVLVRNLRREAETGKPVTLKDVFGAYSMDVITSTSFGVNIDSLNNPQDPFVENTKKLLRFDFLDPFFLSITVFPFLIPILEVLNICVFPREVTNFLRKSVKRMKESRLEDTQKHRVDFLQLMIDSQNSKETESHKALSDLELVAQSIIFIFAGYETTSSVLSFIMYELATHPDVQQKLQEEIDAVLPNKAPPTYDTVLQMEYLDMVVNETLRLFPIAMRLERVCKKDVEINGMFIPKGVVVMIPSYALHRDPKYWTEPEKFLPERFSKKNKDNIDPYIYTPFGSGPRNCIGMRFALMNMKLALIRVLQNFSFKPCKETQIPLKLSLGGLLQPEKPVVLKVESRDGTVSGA
# protocol description: CYP3A4 inhibition in liver cells
# Format: in vitro ADME
# measurement parameters: read-out: CYP3A4 IC50; inhibition of cytochrome P450 enzymes in liver cells
metric: pIC50
On this scale, pIC50 is minus log10 of a concentration expressed in M (mol/L).

// assay CYP3A4 (Homo sapiens, UniProt P08684), entry Nc1ccc(-c2cccs2)cc1NC(=O)CCCCCCNC(=O)c1cccnc1 [compound 233] , pIC50 value = 6.96

###

# test target: HDAC8 (Homo sapiens, UniProt Q9BY41)
# Sequence (Q9BY41 whole entry, species assumed): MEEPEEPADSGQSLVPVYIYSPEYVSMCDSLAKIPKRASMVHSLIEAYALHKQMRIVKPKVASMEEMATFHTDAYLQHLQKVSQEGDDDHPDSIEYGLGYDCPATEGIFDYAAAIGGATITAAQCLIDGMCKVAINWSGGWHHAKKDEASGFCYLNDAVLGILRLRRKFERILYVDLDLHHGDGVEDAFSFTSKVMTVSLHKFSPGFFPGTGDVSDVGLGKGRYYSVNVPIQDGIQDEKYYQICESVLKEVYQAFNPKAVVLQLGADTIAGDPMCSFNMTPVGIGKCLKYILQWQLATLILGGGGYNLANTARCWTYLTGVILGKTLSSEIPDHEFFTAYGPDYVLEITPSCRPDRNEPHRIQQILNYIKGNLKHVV
# protocol description: HDAC8 inhibition, recombinant enzyme cell-free assay
# measurement parameters: read-out: IC50 for Class I HDAC enzymes: HDAC8; Table 1
metric: IC50

IC50 in this record for Cc1ccc(C(=O)NCCCCCC(=O)Nc2ccc(F)cc2N)cc1 : 13.2 µM

###

# test target: HDAC2 (Homo sapiens, UniProt Q92769)
# Sequence (Q92769 whole entry): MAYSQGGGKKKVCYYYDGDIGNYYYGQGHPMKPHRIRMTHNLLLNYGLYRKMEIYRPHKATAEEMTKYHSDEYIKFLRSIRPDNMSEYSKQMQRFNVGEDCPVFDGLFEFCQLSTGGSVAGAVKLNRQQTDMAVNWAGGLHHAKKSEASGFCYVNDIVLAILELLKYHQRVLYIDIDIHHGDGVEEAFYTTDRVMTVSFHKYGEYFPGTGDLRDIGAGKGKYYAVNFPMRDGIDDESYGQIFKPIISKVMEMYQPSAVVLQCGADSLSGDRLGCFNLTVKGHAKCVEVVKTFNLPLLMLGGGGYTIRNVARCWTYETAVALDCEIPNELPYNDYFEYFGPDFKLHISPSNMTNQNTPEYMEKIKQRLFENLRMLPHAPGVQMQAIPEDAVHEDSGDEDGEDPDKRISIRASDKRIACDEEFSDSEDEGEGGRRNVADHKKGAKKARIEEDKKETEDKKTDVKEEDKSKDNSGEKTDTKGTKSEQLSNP
# protocol description: HDAC2 inhibition, Fluor-de-Lys fluorescence assay with purified enzyme
# measurement parameters: read-out: HDAC2 IC50; Table 2
metric: IC50 (nM)
Use nM as the unit, but write only the number.

Measured IC50 of Nc1ccc(-c2cccs2)cc1NC(=O)CCCCCCNC(=O)c1cccnc1 : 70

###

# test target: HDAC5 (Homo sapiens)
# Sequence (Q9UQL6 whole entry, species assumed): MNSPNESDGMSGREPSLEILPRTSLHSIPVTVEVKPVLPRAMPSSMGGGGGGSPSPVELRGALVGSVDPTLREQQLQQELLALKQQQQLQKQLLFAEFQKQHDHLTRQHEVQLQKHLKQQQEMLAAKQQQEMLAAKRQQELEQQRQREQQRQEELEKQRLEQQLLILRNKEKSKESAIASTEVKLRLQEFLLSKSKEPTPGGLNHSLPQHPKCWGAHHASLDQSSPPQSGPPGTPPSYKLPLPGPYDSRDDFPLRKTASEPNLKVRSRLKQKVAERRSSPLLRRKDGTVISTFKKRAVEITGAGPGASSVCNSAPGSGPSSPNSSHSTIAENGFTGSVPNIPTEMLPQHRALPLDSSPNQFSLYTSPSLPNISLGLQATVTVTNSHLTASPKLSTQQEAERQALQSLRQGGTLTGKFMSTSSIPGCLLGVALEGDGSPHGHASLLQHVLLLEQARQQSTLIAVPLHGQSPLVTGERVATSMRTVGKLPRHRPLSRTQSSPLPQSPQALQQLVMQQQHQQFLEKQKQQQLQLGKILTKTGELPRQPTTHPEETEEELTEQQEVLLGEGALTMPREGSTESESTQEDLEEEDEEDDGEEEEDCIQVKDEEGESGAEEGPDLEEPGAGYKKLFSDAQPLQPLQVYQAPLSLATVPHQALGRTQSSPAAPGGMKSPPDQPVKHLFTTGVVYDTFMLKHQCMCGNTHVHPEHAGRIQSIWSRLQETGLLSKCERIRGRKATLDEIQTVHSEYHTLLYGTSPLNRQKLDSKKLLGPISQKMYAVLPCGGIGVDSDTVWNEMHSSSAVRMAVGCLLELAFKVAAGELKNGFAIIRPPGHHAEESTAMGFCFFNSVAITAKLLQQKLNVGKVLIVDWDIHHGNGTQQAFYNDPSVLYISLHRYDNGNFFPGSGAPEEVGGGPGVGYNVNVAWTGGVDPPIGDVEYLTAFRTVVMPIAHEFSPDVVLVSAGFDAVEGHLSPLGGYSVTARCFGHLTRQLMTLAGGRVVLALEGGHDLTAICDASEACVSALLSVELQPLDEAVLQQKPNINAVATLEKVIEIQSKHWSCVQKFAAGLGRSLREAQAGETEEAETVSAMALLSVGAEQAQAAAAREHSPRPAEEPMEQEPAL
metric: IC50

For record Cc1ccc(C(=O)NCCCCCC(=O)Nc2ccc(F)cc2N)cc1 the listed IC50 is > 180 µM

Hello, the source for this data is paper PMC3528106, in case you need it.
